Data credit: patent US20230277534A1

Reported IC50 values follow for various molecules
- System: COLO205 colon adenocarcinoma cells (B-Raf V600E mutation)
- protocol description: COLO205 cell growth inhibition (ATPlite)
- Type: cell-based
- test conditions: Homo sapiens, COLO 205, 72 h, 3 days

chemical smiles	system name	IC50
O=C(c1c(F)ccc(NS(=O)(=O)N2CCCC2)c1F)c1c[nH]c2ncc(-c3cnc(N4CCC(O)CC4)nc3)cc12	COLO205 colon adenocarcinoma cells (B-Raf V600E mutation)	< 1 µM
CCNS(=O)(=O)Nc1ccc(F)c(C(=O)c2c[nH]c3ncc(-c4cnc(C5CC5)nc4)cc23)c1F	COLO205 colon adenocarcinoma cells (B-Raf V600E mutation)	< 1 µM
CCN(C)S(=O)(=O)Nc1cccc(C(=O)c2c[nH]c3ncc(-c4ccc(Cl)cc4)cc23)c1F	COLO205 colon adenocarcinoma cells (B-Raf V600E mutation)	> 1 µM
CN(C)S(=O)(=O)Nc1cccc(C(=O)c2c[nH]c3ncc(-c4ccc(C5CC5)nc4)cc23)c1F	COLO205 colon adenocarcinoma cells (B-Raf V600E mutation)	< 1 µM
Cc1ccnc(-c2cnc3[nH]cc(C(=O)c4cccc(NS(=O)(=O)N5CCCC5)c4F)c3c2)n1	COLO205 colon adenocarcinoma cells (B-Raf V600E mutation)	> 1 µM

Query: Provide one value: measured IC50 of COc1ncc(-c2cnc3[nH]cc(C(=O)c4cccc(NS(=O)(=O)N5CC(F)(F)C5)c4F)c3c2)cn1
Response: > 1 µM
